- target or test system: D(3) dopamine receptor (Homo sapiens)
- test method notes: qHTS of D3 Dopamine Receptor Antagonist: qHTS; also: % is scaled to controls: 0 for no effect and ±100 for the full control effect
- conditions used: D3R cells, DiscoveRx beta-arrestin luminescence, antagonist mode; active compounds read low
- Procedure: D3 DARs represent a very important target for the treatment of several neuropsychiatric disorders. Indeed, one of the most promising therapeutic applications for the D3 DAR is in the area of addiction and related disorders. […] Freshly passaged cells are plated in 1536 well white, solid bottom plates at a density of 1500 cells/well in 3microl of complete media. […] Following incubation, luminescence is measured on a ViewLux CCD-based luminometer reader using a 20 sec exposure time.
About 9,100 (2.5%) of roughly 360,000 compounds were called active. Inconclusive results (about 4%) are left out. For the sample, actives were picked, then their nearest neighbours and some compounds at random.
This section presents compounds with their documented max response, negative = inhibition values.
Expressed in %, but write only the number.

## Input Consider the compound CCOC(=O)[C@]12CCCC=C1N(Cc1ccc(Cl)cc1Cl)C(=O)[C@H](CC(=O)N1CCCCC1)C2 and give its measured max response, negative = inhibition.
## Output -25.8

## Input Consider the compound CNC(=S)Nc1ccc([N+](=O)[O-])cc1 and give its measured max response, negative = inhibition.
## Output -17.8

## Input Consider the compound CCOC(=O)[C@]12CCCC=C1N(CCC1=CCCCC1)C(=O)[C@H](CC(=O)N1CCCCC1)C2 and give its measured max response, negative = inhibition.
## Output 6.86

## Input Consider the compound COc1ccc(-n2cc(CN(C)Cc3n[nH]c(=O)[nH]3)c(-c3cccc(F)c3)n2)cc1 and give its measured max response, negative = inhibition.
## Output 0.876

## Input Consider the compound CC(C)c1cc(C(=O)N/N=C/c2ccoc2)c(O)c(C(C)C)c1 and give its measured max response, negative = inhibition.
## Output -60.7

## Input Consider the compound O=[N+]([O-])c1ccc(N=NNc2ccc([N+](=O)[O-])cc2)cc1 and give its measured max response, negative = inhibition.
## Output -50.6

## Input Consider the compound CCCC(=O)N1CCC1(C)C(=O)NCc1ccc(C(C)C)cc1 (stereo unspecified) and give its measured max response, negative = inhibition.
## Output -6.82

## Input Consider the compound O=[N+]([O-])c1ccc(N2CCNCC2)cc1NCc1cccnc1 and give its measured max response, negative = inhibition.
## Output 1.82

Origin of the recorded values: PubChem BioAssay AID652054
